Assay method text: APR_HepG2_CellCycleArrest_24hr: Apredica 24-hour HepG2 Assay for Cell Cycle Arrest (AID 2282905);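 also: cell cycle arrest scored as ratio of 2N to 4N nuclear DNA content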
Test parameters: imaging, actives raise or lower the signal
Active and inactive are the calls of the source. The calls were made as follows: active = hit-call score of the fitted dose curve at least 0.9, where 1 is the maximum; inactive = score below 0.9.
Possible outcomes: TRUE for active, FALSE for inactive

- Molecule: "CCCCCCCCOc1ccc(C(=O)c2ccccc2)c(O)c1"
  Group: "TRUE"
- Molecule: "CC(O)CC(C)(C)O (configuration not stated)"
  Group: "FALSE"
- Molecule: "CO[C@H]1/C=C/O[C@@]2(C)Oc3c(C)c(O)c4c(O)c(c(/C=N/N5CCN(C)CC5)c(O)c4c3C2=O)NC(=O)/C(C)=C\\C=C\\[C@H](C)[C@H](O)[C@@H](C)[C@@H](O)[C@@H](C)[C@H](OC(C)=O)[C@@H]1C"
  Group: "FALSE"
- Molecule: "O=CCCCC=O"
  Group: "FALSE"
- Molecule: "CN1C(=O)N(c2ccccc2Br)Cc2cnc(Nc3ccc4c(c3)OCC(CO)O4)nc21 (configuration not stated)"
  Group: "TRUE"
- Molecule: "O=C1O[C@H]([C@@H](O)CO)C(O)=C1O"
  Group: "FALSE"
- Molecule: "CCCCOC(=O)c1ccc(O)cc1"
  Group: "FALSE"
- Molecule: "CCCCCCCCCC(=O)O"
  Group: "FALSE"
- Molecule: "Cc1cccc2ccccc12"
  Group: "FALSE"
- Molecule: "CCCCCCCC[Si](OCC)(OCC)OCC"
  Group: "FALSE"
- Molecule: "COc1cccc([C@H](O)C2CCN(CCc3ccc(F)cc3)CC2)c1OC"
  Group: "TRUE"
- Molecule: "Cc1ncc(CO)c(CO)c1O"
  Group: "FALSE"

* * *

Target system: human Peripheral-type Benzodiazepine Receptor (PBR), TSPO (gene 706) (UniProt P30536)
Sequence (P30536 whole entry, looked up): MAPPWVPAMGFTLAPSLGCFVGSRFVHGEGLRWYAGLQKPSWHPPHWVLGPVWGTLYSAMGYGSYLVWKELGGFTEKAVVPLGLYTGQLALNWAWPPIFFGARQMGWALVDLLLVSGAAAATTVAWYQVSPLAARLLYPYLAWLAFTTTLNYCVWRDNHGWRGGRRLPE
Assay method text: NVS_MP_hPBR: NovaScreen (NVS) Membrane Protein Assay for human Peripheral-type Benzodiazepine Receptor (PBR) (AID 2283331);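 also: hits reduce radioligand binding relative to DMSO baseline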
Inconclusive results are not listed. Activity calls are given as the source filed them. The calls were made as follows: active = hit-call score of the fitted dose curve at least 0.9, where 1 is the maximum; inconclusive = response in the unintended direction; inactive = score below 0.9.
Recorded endpoint: AC50

- Molecule: "CN(C)c1ccc(C(=C2C=CC(=[N+](C)C)C=C2)c2ccc(N(C)C)cc2)cc1"
  Target system: "human Peripheral-type Benzodiazepine Receptor (PBR), TSPO (gene 706) (UniProt P30536)"
  Measured value: "1400 nM (active)"
- Molecule: "Oc1ccc2ccccc2c1"
  Target system: "human Peripheral-type Benzodiazepine Receptor (PBR), TSPO (gene 706) (UniProt P30536)"
  Measured value: "inactive"
- Molecule: "CC[C@H](NC(=O)c1cc(F)ccc1NS(=O)(=O)c1cccc2cccnc12)c1ccccc1"
  Target system: "human Peripheral-type Benzodiazepine Receptor (PBR), TSPO (gene 706) (UniProt P30536)"
  Measured value: "246 nM (active)"
- Molecule: "OC12N=C(c3ccccc3)SC1Cc1cc(Cl)ccc12 (centres undefined)"
  Target system: "human Peripheral-type Benzodiazepine Receptor (PBR), TSPO (gene 706) (UniProt P30536)"
  Measured value: "inactive"

* * *

Assay method text: APR_HepG2_MitoticArrest_72hr: Apredica 72-hour HepG2 Assay for Mitotic Arrest (AID 2282918)
Test parameters: high-content imaging, actives raise or lower the signal
Activity calls are given as the source filed them. Rule for the calls: active = hit-call score of the fitted dose curve at least 0.9, where 1 is the maximum; inactive = score below 0.9.
Possible outcomes: 1.0 = active, 0.0 = inactive

- Mol smiles: "c1ccc(C[n+]2cccc3ccccc32)cc1"
  Group: 1.0
- Mol smiles: "CCCCOC(=O)CC(CC(=O)OCCCC)(OC(C)=O)C(=O)OCCCC"
  Group: 1.0
- Mol smiles: "NCc1cccc(C2CCN(C(=O)c3ccc(C#Cc4ccccc4F)o3)CC2)c1"
  Group: 1.0
- Mol smiles: "CCCC(=O)OCCC(C)C"
  Group: 0.0
- Mol smiles: "CCCCCCCCCCCO"
  Group: 1.0
- Mol smiles: "O=C1O[C@H]([C@@H](O)CO)C(O)=C1O"
  Group: 1.0
- Mol smiles: "CCCCCCCCOC(=O)c1cc(O)c(O)c(O)c1"
  Group: 1.0
